# tested_system: UP1 (RRM1-RRM2 fragment of hnRNP A1) (UniProt P09651 1-196)
# Sequence (P09651 1-196): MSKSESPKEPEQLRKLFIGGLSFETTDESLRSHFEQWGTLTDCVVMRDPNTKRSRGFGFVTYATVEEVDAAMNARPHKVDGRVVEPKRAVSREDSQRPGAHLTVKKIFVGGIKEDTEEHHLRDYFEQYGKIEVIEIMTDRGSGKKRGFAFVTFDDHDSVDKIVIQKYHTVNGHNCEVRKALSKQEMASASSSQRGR
# test_description: NMR
measured_parameter: Kd (µM)
Only the number, expressed in µM, is required.

// field: Kd; key: GCACCACACGGGUUUUAGACAAAAUCCG (structured_RNA) [SMN2 exon 7 ESE1 hairpin] ; value = 100
